# Test system: NCI-H524 (ATCC) human lung cancer cells
# Assay type: cell-based
# Reported Conditions: Table 15; treated 2 hours, further incubated 70 hours; read-out: H524 IC50
Parameter Measured: IC50 (nM)
Give the quantity in nM, number only.

{"Compound": "COc1cc2cc(c1Cl)N(C)C(=O)C[C@H](OC(=O)[C@H](C)N(C)C(=O)CCSSCCOCCOCCOCCOCCC(=O)N[C@H](Cc1ccccc1)C(=O)N[C@H]1CSSC[C@@H](C(=O)N[C@H](CO)[C@@H](C)O)NC(=O)[C@H]([C@@H](C)O)NC(=O)[C@H](CCCCN)NC(=O)[C@@H](Cc3c[nH]c4ccccc34)NC(=O)[C@H](Cc3ccccc3)NC1=O)[C@]1(C)O[C@H]1[C@H](C)[C@@H]1C[C@@](O)(NC(=O)O1)[C@H](OC)/C=C/C=C(\\C)C2 [Conjugate 98]", "Target": "NCI-H524 (ATCC) human lung cancer cells", "IC50 (nM)": 690}

Ask: Provide measured IC50 value, entry: COc1cc2cc(c1Cl)N(C)C(=O)C[C@H](OC(=O)[C@H](C)N(C)C(=O)CCSSCCCN[C@H](Cc1ccccc1)C(=O)N[C@H]1CSSC[C@@H](C(=O)N[C@H](C(=O)O)[C@@H](C)O)NC(=O)[C@H]([C@@H](C)O)NC(=O)[C@H](CCCCN)NC(=O)[C@@H](Cc3c[nH]c4ccccc34)NC(=O)[C@H](Cc3ccc(O)cc3)NC1=O)[C@]1(C)O[C@H]1[C@H](C)[C@@H]1C[C@@](O)(NC(=O)O1)[C@H](OC)/C=C/C=C(\C)C2 [Conjugate 80]
Result: 152
